# Tested on: peptide-producing enzyme (Mono S fraction) from Empedobacter brevis strain FERM BP-8113
# method: Enzyme substrate specificity (1)-(10), (13), (14)
# Type: biochemical
# condition-notes: L or D amino acid methyl ester hydrochloride 100 mM, L or D amino acid 150 mM, pH 9.0, 25° C., 3 hours
Non-standard residues stand in square brackets, D forms with d. Residues, ends and D or L forms follow the SMILES beside them.
Respond with class 1 for Produced peptide values of 3 mM and above, class 0 for values below.

compound | assigned-label
CSCC[C@@H](N)C(=O)N[C@H](CO)C(=O)O [D-Met-D-Ser] (H-[dM]-[dS]-OH) | class 0
C[C@@H](N)C(=O)N[C@@H](CCC(N)=O)C(=O)O [D-Ala-L-Gln] (H-[dA]-Gln-OH) | class 1
N[C@@H](CO)C(=O)N[C@H](CO)C(=O)O [L-Ser-D-Ser] (H-Ser-[dS]-OH) | class 1
C[C@@H](O)[C@H](N)C(=O)N[C@H](CO)C(=O)O [L-Thr-D-Ser] (H-Thr-[dS]-OH) | class 1
CC(C)[C@@H](N)C(=O)N[C@@H](CO)C(=O)O [D-Val-L-Ser] (H-[dV]-Ser-OH) | class 0
N[C@H](CO)C(=O)N[C@@H](CO)C(=O)O [D-Ser-L-Ser] (H-[dS]-Ser-OH) | class 1
